Reported self-splicing fitness (ln) is given for each of the following sequences.
assay: self-splicing fitness, log relative to wild type (ln ratio); higher = more splicing; Tetrahymena group I intron in knt gene, E. coli kanamycin selection, DiMSum; sequences stand for … in CUCUCU…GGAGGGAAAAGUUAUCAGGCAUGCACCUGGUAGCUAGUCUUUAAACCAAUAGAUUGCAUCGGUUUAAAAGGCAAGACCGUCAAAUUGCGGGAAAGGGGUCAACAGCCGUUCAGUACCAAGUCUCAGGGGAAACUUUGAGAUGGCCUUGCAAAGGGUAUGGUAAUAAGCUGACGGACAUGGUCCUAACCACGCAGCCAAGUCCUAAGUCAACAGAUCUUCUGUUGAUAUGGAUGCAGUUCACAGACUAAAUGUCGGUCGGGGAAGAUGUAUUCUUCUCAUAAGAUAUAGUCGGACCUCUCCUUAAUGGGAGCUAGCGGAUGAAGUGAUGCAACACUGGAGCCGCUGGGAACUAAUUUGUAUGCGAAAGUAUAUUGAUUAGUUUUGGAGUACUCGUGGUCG; details: 37 °C;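 further: selection with 25 µg/mL kanamycin versus none on LB agar overnight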
QUANTITY KIND: self-splicing fitness (ln)

INSERT INTO results (query_sequence, result) VALUES
  ('UAGUAGCAAUAUUACGCUUU', -2.18),
  ('CGUUAGCAAUAUUACGUAGG', -0.845),
  ('GUGCAGCAAUAUUACGACCC', 0.132),
  ('CGCGAGCAAUAUUACGCUAG', -1.39),
  ('UAUGAGCAAUAUUACGGCGA', -0.45),
  ('AUACAGCAAUAUUACGCGCG', -1.07),
  ('CAUAAGCAAUAUUACGUCAA', -2.61),
  ('AACGAGCAAUAUUACGAGCU', -3.22),
  ('CCUCAGCAAUAUUACGUGCU', -2.62),
  ('ACGAAGCAAUAUUACGUCUA', -1.03),
  ('GGGCAGCAAUAUUACGCCAG', -0.684),
  ('AUAUAGCAAUAUUACGGGAC', -1.82),
  ('CUGAAGCAAUAUUACGCUAA', -2.45),
  ('CGUCAGCAAUAUUACGCGCG', -2.19),
  ('CGAUAGCAAUAUUACGUCGG', -0.171),
  ('UGGCAGCAAUAUUACGGGCC', -1.78);

====

assay: self-splicing fitness, log relative to wild type (ln ratio); higher = more splicing; Tetrahymena group I intron in knt gene, E. coli kanamycin selection, DiMSum; sequences stand for … in CUCUCU…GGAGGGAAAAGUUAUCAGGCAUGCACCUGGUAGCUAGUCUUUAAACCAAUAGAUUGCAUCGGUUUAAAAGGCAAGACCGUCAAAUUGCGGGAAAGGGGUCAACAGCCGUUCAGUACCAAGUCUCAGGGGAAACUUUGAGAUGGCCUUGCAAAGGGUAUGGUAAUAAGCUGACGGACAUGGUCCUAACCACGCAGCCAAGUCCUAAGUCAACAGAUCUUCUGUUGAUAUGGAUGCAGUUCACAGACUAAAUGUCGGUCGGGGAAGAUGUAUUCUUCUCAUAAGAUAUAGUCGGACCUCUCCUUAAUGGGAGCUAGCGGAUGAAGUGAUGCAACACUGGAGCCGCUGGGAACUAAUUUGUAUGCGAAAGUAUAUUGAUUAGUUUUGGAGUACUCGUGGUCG; conditions: 30 °C
Reported self-splicing fitness (ln) is given for each of the following sequences.
QUANTITY KIND: self-splicing fitness (ln)

INSERT INTO results (query_sequence, quantity_kind, result) VALUES
  ('AUAGAGCAAUAUUACGGCAA', 'self-splicing fitness (ln)', -1.97),
  ('CCGCAGCAAUAUUACGGGUU', 'self-splicing fitness (ln)', -3.79),
  ('GCUAAGCAAUAUUACGUCCU', 'self-splicing fitness (ln)', -0.847),
  ('AAGUAGCAAUAUUACGGUCG', 'self-splicing fitness (ln)', -2.14),
  ('GGGCAGCAAUAUUACGGCGG', 'self-splicing fitness (ln)', -1.76),
  ('UAGAAGCAAUAUUACGCCGG', 'self-splicing fitness (ln)', -0.817),
  ('UUUAAGCAAUAUUACGAUUG', 'self-splicing fitness (ln)', -1.36),
  ('CGUUAGCAAUAUUACGGAGC', 'self-splicing fitness (ln)', -3.81),
  ('UUCCAGCAAUAUUACGCGGA', 'self-splicing fitness (ln)', -2.74),
  ('CAAGAGCAAUAUUACGACGG', 'self-splicing fitness (ln)', -0.504),
  ('CGAAAGCAAUAUUACGUCAU', 'self-splicing fitness (ln)', -4.71),
  ('GCUCAGCAAUAUUACGGCUC', 'self-splicing fitness (ln)', -0.525),
  ('AAAGAGCAAUAUUACGCGUA', 'self-splicing fitness (ln)', -1.96),
  ('GAUAAGCAAUAUUACGACUC', 'self-splicing fitness (ln)', 0.0338),
  ('AUUAAGCAAUAUUACGACCA', 'self-splicing fitness (ln)', -0.395),
  ('UGUGAGCAAUAUUACGACUU', 'self-splicing fitness (ln)', -2.13),
  ('CAACAGCAAUAUUACGUAUG', 'self-splicing fitness (ln)', -2.88),
  ('GUAAAGCAAUAUUACGCUUG', 'self-splicing fitness (ln)', -2.17),
  ('GCUUAGCAAUAUUACGCAUG', 'self-splicing fitness (ln)', -2.06),
  ('CACUAGCAAUAUUACGCUGG', 'self-splicing fitness (ln)', -4.08),
  ('AGCUAGCAAUAUUACGUAUG', 'self-splicing fitness (ln)', -2.52),
  ('CUACAGCAAUAUUACGCGAA', 'self-splicing fitness (ln)', -2.83),
  ('CUGAAGCAAUAUUACGCGCG', 'self-splicing fitness (ln)', 0.18),
  ('CCCAAGCAAUAUUACGACUA', 'self-splicing fitness (ln)', -2.52),
  ('CGUAAGCAAUAUUACGGUCG', 'self-splicing fitness (ln)', -0.611),
  ('CGAAAGCAAUAUUACGACAA', 'self-splicing fitness (ln)', -1.13),
  ('CUCAAGCAAUAUUACGCUGA', 'self-splicing fitness (ln)', -3.13),
  ('GUCAAGCAAUAUUACGCAAU', 'self-splicing fitness (ln)', -2),
  ('ACUAAGCAAUAUUACGCUGU', 'self-splicing fitness (ln)', -2.77),
  ('AACAAGCAAUAUUACGCAGG', 'self-splicing fitness (ln)', -2.67),
  ('CACCAGCAAUAUUACGCGGC', 'self-splicing fitness (ln)', -2.68),
  ('CUGAAGCAAUAUUACGUCAG', 'self-splicing fitness (ln)', -4.14),
  ('UUUAAGCAAUAUUACGUCCG', 'self-splicing fitness (ln)', -1.17),
  ('GUCUAGCAAUAUUACGGCAA', 'self-splicing fitness (ln)', -1.61);
